# System: Fibroblast
# experimental_protocol: Multiplex assay against human fibroblast
# Format: toxicity, cell-based
# run_conditions: 12 h, 10 µM, compound concentration 10 uM, replicate 2
readout_name: Population Membrane Permeable-Phenotype (%)

| compound | assay_target | assay_value |
| --- | --- | --- |
| COc1ccc2c(c1)C(C(=O)N(Cc1ccc(N(C)C)cc1)c1ccc(C(C)C)cc1)CCC2.Cl (centres undefined) | Fibroblast | 6 |
| O=C1COc2nccc(-c3ccccc3F)c2CN1Cc1cc(C(F)(F)F)cc(C(F)(F)F)c1 | Fibroblast | 4 |
| C[C@@H]1C[C@H]2[C@@H]3CCC4=CC(=O)C=C[C@]4(C)[C@@]3(F)[C@@H](O)C[C@]2(C)[C@@]1(O)C(=O)CO | Fibroblast | 4 |
| CN1CCN(c2nc3cc(C(F)(F)F)ccc3n3cccc23)CC1.O=C(O)/C=C\C(=O)O.O=C(O)/C=C\C(=O)O | Fibroblast | 4 |

====

# Tested on: Fibroblast
# experimental_protocol: Multiplex assay against human fibroblast
# Type: toxicity, cell-based
# run_conditions: 12 h, 10 µM, compound concentration 10 uM, replicate 2
readout_name: Population Apoptotic (%)

| compound | unit_abbreviation | assay_value |
| --- | --- | --- |
| Cl.Clc1ccc2nsnc2c1NC1=NCCN1 [TIZANIDINE HYDROCHLORIDE] | % | 21 |
| CN(C)c1ccnc2sc3c(=O)n(N4CCCCCC4)cnc3c12 | % | 49 |
| COc1c(C)cc(NC(=O)c2nn(Cc3ccc(F)cc3)c3c2CN(C(=O)c2ccc[nH]2)C[C@]3(C)C(N)=O)cc1C | % | 52 |
| CNC[C@H](O)c1ccc(O)c(O)c1 [EPINEPHRINE] | % | 32 |

====

Listing: Total Cell Count of selected compounds
# System: HEK-293T
# experimental_protocol: Multiplex assay against HEK293T
# Type: toxicity, cell-based
# run_conditions: human, 24 h, 10 µM, compound concentration 10 uM, replicate 2

| compound | Total Cell Count |
| --- | --- |
| COc1ccc2c(c1)C(C(=O)N(Cc1ccc(N(C)C)cc1)c1ccc(C(C)C)cc1)CCC2.Cl (stereo not drawn) | 389 |
| N#Cc1c(N)nc(SCc2csc(-c3ccc(Cl)cc3)n2)c(C#N)c1-c1ccc(OCCO)cc1 [CAPADENOSON] | 391 |
| CC1(COc2ccc3c(c2)ncn3-c2ccc3cccc(N4CCC(N)CC4)c3n2)COC1 [CRENOLANIB] | 334 |
| CCCn1c(=O)c2[nH]c(C3CCCC3)nc2n(CCC)c1=O | 411 |
| CCCN1CCC[C@@H]2Cc3n[nH]cc3C[C@H]21.Cl [QUINPIROLE HYDROCHLORIDE] | 406 |
| CN(C)CCCc1cc(C(=O)Nc2ccc(-c3ccncc3)cc2)ccc1O.Cl.Cl | 505 |
| CSCC[C@H](NC=O)C(=O)N[C@@H](CC(C)C)C(=O)N[C@@H](Cc1ccccc1)C(=O)O | 490 |
| O=C(O)Cc1ccccc1Nc1c(Cl)cccc1Cl [DICLOFENAC] | 462 |
| Oc1c(CN2CCN(c3ccccn3)CC2)cc(Cl)c2cccnc12 | 354 |
| O=C(NCC(=O)N1CC[C@H](N[C@H]2CC[C@@](O)(c3ccc(-c4ncccn4)cn3)CC2)C1)c1cccc(C(F)(F)F)c1 [PF-4136309] | 384 |
| CSc1ccccc1N1CCN(CCCCCC(=O)NC2CCCc3ccccc32)CC1.Cl (stereo not drawn) | 315 |
| Cl.Clc1ccc2nsnc2c1NC1=NCCN1 [TIZANIDINE HYDROCHLORIDE] | 443 |
| C[C@H]1[C@H]2CC[C@H]3[C@@H]4CC=C5C[C@@H](N(C)C)CC[C@]5(C)[C@H]4CC[C@]23CN1C [CONESSINE] | 474 |
| COc1ccccc1N1CCN(CCCCNC(=O)c2ccc3ccccc3c2)CC1.Cl | 276 |
| COc1c(C)cc(NC(=O)c2nn(Cc3ccc(F)cc3)c3c2CN(C(=O)c2ccc[nH]2)C[C@]3(C)C(N)=O)cc1C | 313 |
| Cc1ccc(F)cc1C(=O)Nc1ccc(C(=O)N2Cc3cccn3Cc3ccccc32)c(Cl)c1 [LIXIVAPTAN] | 401 |
| C[C@H](NC(=O)c1c(C(F)F)nn(C)c1Oc1cccc(C(F)(F)F)c1)c1ccc(C(=O)O)cc1 [PALUPIPRANT] | 353 |
| CCCC(CCC)C(=O)O [VALPROIC ACID] | 593 |
